This collection of values is drawn from the kinase profiling compilation of Christmann-Franck et al. (2016).

Catalogue of compounds with associated residual activity
target: UniProt Q02156; assay: radiometric filter-binding kinase assay, Kinase HotSpot; details: compound 0.5 µM; ATP 10 µM
Sequence (Q02156 whole entry, looked up): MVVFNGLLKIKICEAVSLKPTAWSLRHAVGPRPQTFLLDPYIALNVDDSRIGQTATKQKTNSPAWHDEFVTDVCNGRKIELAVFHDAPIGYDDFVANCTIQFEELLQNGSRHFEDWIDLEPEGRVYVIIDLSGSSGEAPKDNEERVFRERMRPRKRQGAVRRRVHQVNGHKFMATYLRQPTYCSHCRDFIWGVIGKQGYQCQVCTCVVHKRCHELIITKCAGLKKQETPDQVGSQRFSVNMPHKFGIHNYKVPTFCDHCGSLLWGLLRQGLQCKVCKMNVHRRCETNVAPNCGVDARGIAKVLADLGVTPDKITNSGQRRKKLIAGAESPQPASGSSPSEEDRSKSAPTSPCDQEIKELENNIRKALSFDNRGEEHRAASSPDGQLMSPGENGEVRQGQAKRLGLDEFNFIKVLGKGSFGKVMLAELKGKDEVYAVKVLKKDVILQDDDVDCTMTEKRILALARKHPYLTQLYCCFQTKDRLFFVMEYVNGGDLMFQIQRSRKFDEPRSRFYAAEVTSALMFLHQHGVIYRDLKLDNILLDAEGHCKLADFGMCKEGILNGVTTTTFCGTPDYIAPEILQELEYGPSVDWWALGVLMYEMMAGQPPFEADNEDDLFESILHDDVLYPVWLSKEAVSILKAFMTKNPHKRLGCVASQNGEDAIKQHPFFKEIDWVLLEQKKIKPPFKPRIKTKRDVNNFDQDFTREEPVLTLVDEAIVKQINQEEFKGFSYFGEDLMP
Output spec: scalar in %, unitless text.

CCCCc1c(-c2ccc(O)cc2)[nH]c2nccnc12 : 107
O=C1NC(=O)c2c1c1c3ccccc3[nH]c1c1[nH]c3cc(Br)ccc3c21 : 95.7
COc1cc2c(N3CCN(C(=O)Nc4ccc(OC(C)C)cc4)CC3)ncnc2cc1OCCCN1CCCCC1 : 104
Cn1cc(/C=C2\C(=O)Nc3ccc(S(N)(=O)=O)cc32)c2ccccc21 : 77.3
O=S(=O)(NCCNC/C=C/c1ccc(Br)cc1)c1cccc2cnccc12 : 86.4

Ask: I have this compound here, `Nc1ncnc2c1cnn2-c1ccccc1` , and I need its recorded residual activity.
Result: 98.3

Ask: One more compound: `O=C(O)c1ccc2c3c1cccc3c(=O)n1c3ccccc3nc21`
Result: 113

* * *

target: FGFR2 (human) (UniProt P21802); test: radiometric filter-binding kinase assay, Kinase HotSpot; settings: compound 0.5 µM; ATP 10 µM
Sequence (P21802 whole entry, looked up): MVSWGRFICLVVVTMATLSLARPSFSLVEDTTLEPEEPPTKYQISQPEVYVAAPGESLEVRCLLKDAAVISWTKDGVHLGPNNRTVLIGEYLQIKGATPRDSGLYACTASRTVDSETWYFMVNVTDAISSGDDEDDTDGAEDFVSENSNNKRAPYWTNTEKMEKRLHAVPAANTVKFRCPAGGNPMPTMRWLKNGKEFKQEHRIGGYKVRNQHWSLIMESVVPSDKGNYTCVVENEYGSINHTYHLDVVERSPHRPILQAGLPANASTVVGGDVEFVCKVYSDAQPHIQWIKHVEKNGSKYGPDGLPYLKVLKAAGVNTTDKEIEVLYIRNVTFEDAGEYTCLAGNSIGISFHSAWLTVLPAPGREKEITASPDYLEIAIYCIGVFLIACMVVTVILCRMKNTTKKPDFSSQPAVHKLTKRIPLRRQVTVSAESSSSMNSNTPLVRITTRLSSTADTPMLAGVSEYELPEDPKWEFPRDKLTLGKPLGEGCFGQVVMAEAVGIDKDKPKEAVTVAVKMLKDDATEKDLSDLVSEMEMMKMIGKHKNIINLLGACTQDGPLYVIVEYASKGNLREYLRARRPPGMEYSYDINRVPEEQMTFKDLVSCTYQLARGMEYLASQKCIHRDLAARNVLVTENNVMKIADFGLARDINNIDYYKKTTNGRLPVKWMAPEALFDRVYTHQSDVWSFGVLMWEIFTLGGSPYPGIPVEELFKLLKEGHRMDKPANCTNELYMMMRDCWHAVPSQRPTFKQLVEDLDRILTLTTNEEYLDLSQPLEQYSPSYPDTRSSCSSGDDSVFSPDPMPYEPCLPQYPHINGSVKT
Readout Kind: residual activity (%)
Output spec: scalar in %, unitless text.

O=C(O)c1ccc2c3c1cccc3c(=O)n1c3ccccc3nc21 : 100
O=c1c2ccccc2[nH]c(=S)n1CCN1CCC(=C(c2ccc(F)cc2)c2ccc(F)cc2)CC1 : 101
Cn1cc(/C=C2\C(=O)Nc3ccc(S(N)(=O)=O)cc32)c2ccccc21 : 50.5
CCCCc1c(-c2ccc(O)cc2)[nH]c2nccnc12 : 94.5

Ask: I have this compound here, `O=C1NC(=O)c2cc(Nc3ccc(F)cc3)c(Nc3ccc(F)cc3)cc21` , and I need its recorded residual activity.
Result: 102

* * *

biological target: MAPK1 (human); assay: radiometric filter-binding kinase assay, Kinase HotSpot; details: compound 0.5 µM; ATP 10 µM
Readout Kind: residual activity (%)
Output spec: scalar in %, unitless text.

O=c1c(-c2ccc(F)cc2)c(-c2ccncc2)[nH]n1-c1ccc(Cl)cc1 : 77.3
COc1cc2ncnc(Nc3ccc(O)c(Br)c3)c2cc1OC : 102

Ask: I have this compound here, `N#Cc1c(NC(=O)c2cccc3ccccc23)sc2c1CCCC2` , and I need its recorded residual activity.
Result: 87.5

Ask: One more compound: `COc1cccc(-c2cc(=O)c3ccccc3o2)c1N`
Result: 97.1

* * *

target: UniProtKB Q15208; assay: radiometric filter-binding kinase assay, Kinase HotSpot; details: compound 0.5 µM; ATP 10 µM
Sequence (Q15208 whole entry, looked up): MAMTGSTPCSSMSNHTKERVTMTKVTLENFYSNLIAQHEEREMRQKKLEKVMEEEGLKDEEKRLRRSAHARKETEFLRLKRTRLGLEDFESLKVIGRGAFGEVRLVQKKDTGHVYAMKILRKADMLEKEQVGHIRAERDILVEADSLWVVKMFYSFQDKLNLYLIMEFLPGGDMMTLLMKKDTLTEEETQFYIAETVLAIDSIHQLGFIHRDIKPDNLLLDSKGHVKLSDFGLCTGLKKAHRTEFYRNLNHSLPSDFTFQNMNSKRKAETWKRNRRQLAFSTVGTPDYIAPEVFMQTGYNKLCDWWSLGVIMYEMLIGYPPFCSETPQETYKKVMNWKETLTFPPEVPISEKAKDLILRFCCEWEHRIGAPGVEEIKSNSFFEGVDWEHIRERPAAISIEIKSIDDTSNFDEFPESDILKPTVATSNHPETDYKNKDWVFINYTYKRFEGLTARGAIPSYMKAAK
Readout Kind: residual activity (%)
Output spec: scalar in %, unitless text.

Cn1cc(/C=C2\C(=O)Nc3ccc(S(N)(=O)=O)cc32)c2ccccc21 : 53.1
N#C/C(=C1/Nc2ccccc2S1)c1ccnc(NCCc2cccnc2)n1 : 100
FC(F)(F)c1ccc(/C=C/c2nc(COc3ccc(CCCCn4ccnn4)cc3)co2)cc1 : 102
O=c1cc(N2CCOCC2)oc2c(-c3ccccc3)cccc12 : 103
Nc1ncnc2c1cnn2-c1ccccc1 : 98.6
O=C(O)c1ccc2c3c1cccc3c(=O)n1c3ccccc3nc21 : 97.5
COc1cc2c(Nc3ccc(Br)cc3F)ncnc2cc1OCC1CCN(C)CC1 : 100
O=C1NC(=O)c2cc(Nc3ccc(F)cc3)c(Nc3ccc(F)cc3)cc21 : 85.5

Ask: I have this compound here, `COc1cc2c(N3CCN(C(=O)Nc4ccc(OC(C)C)cc4)CC3)ncnc2cc1OCCCN1CCCCC1` , and I need its recorded residual activity.
Result: 99.1

Ask: One more compound: `COc1cccc(-c2cc(=O)c3ccccc3o2)c1N`
Result: 97.4
